# System Tested: Peroxisome proliferator-activated receptor alpha (Homo sapiens)
# Sequence (Q07869 whole entry): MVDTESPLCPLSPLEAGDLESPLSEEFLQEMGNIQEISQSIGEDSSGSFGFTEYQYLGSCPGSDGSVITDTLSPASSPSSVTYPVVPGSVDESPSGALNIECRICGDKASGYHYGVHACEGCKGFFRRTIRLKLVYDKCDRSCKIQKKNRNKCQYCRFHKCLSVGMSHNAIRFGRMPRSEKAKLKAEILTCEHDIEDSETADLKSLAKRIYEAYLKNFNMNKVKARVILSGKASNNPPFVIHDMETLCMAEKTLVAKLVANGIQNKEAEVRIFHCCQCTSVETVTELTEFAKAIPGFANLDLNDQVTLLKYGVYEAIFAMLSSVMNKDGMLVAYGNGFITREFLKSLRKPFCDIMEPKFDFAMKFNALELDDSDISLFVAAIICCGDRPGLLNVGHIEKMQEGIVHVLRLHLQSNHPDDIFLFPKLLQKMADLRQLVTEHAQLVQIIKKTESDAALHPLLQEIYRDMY
# Experiment Description: Agonist activity at human PPARalpha ligand binding domain expressed in african green monkey CV1 cells co-transfected with fused Gal4-DBD by transactivation assay
Recorded Endpoint: pEC50
Give bare numbers, as −log10 of the molar value.

CCO[C@H](Cc1cccc(C2=NOC(CCc3ccccc3)C2)c1)C(=O)O (stereo partly specified): 4.35
CCO[C@@H](Cc1cccc(/C(C)=N/OCc2ccc(Cl)cc2)c1)C(=O)O: 5.14
CCO[C@@H](Cc1cccc(/C(C)=N/OCc2ccc(F)cc2)c1)C(=O)O: 5.23
CCO[C@H](Cc1cccc(-c2cc(-c3ccccc3)on2)c1)C(=O)O: 4.52
CCO[C@@H](Cc1cccc(/C(C)=N/OCc2ccc(I)cc2)c1)C(=O)O: 6.17
CCO[C@@H](Cc1cccc(C2=NOC(c3ccc(Br)cc3)C2)c1)C(=O)O (stereo partly specified): 5.36
CCO[C@@H](Cc1cccc(C2=NOC(c3ccc(F)cc3)C2)c1)C(=O)O (stereo partly specified): 4.61
CCO[C@@H](Cc1cccc(C2=NOC(c3ccc(OC)cc3)C2)c1)C(=O)O (stereo partly specified): 4.95

For each of the molecules below, state pEC50.
1. CCO[C@@H](Cc1cccc(/C(C)=N/OCc2ccc(OS(C)(=O)=O)cc2)c1)C(=O)O
2. CCO[C@@H](Cc1cccc(/C(C)=N/OCc2ccc(OC)cc2)c1)C(=O)O
3. CCO[C@@H](Cc1cccc(C2=NOC(Cc3ccccc3)C2)c1)C(=O)O (stereo partly specified)

1. 4.88
2. 5.39
3. 4.67

###

# System Tested: Peroxisome proliferator-activated receptor alpha (Homo sapiens)
# Experiment Description: Agonist activity at human PPARalpha ligand binding domain expressed in african green monkey CV1 cells co-transfected with fused Gal4-DBD by transactivation assay relative to gemfibrozil
# Format: cell-based
# Condition Description: CV-1
For each record, write down the corresponding Emax.
Answers are plain numbers, in %.

Below, 3 compounds whose answers are already recorded.
CCO[C@@H](Cc1cccc(/C(C)=N/OCc2ccc(C(F)(F)F)cc2)c1)C(=O)O: 185
CCO[C@@H](Cc1cccc(C2=NOC(c3ccc(C(C)(C)C)cc3)C2)c1)C(=O)O (stereo partly specified): 138
CCO[C@H](Cc1cccc(/C(C)=N/OCc2ccccc2)c1)C(=O)O: 8

For each of the compounds below, state Emax.
1. Cc1ccc(C)c(OCCCC(C)(C)C(=O)O)c1
2. CCO[C@@H](Cc1cccc(C2=NOC(c3ccc(I)cc3)C2)c1)C(=O)O (stereo partly specified)

1. 100
2. 162
